target: T1, angiotensin II-biotin (UniProt P01019 25-32, biotin attached (angiotensin II-biotin; chemical structure only in Figure 3))
T1 construct: Captured through its biotin on streptavidin (Biacore chip, ELISA plate) or on NeutrAvidin resin (selection); P01019 is the human angiotensinogen precursor, and angiotensin II is only a fragment of it; also called アンジォテンシン II-ピオチン
experimentalDetails: SPR (Biacore 3000), angiotensin II-biotin on streptavidin chip
recordedEndpoint: binding result

binder: MI3-28 (scFv, Single-chain antibody translated in wheat germ extract) scFv: MASMTGGQQMGQVTLKESGPGILQPSQTLSLTCSFSGFSLSTSGMGVGWIRQPSGKGLEWLAHIWRDDVKRYNPALKSRLTISKDTSSSQVFLKIASMDTADTATYYCPRIYYYGPYFDVWGAGTTVTVSLAKTSRPSGGGGSGGGGSGGAGSGGGGSIEGRDIQLTQPPSFLSASLGDRVSLTCRVSQDIGSSLNWLQQDPDGTIKRLIYAISSIDSGVPKRFSGNRSESDYSLTISSLESEDFVDYYCLQYASTPPTFGGGTKLEIKRDYKDDDDKRTSRVRLHHHHHHHKK
recordedEndpoint: binding result
result: binds
--
binder: MI3-5 (scFv, Single-chain antibody translated in wheat germ extract) scFv: MASMTGGQQMGQVTLKETGPGILQPSQTLSLTCSFSGFSLSTSGMGVGWIRQPSGKGLEWLAHIWRDDVKRYNPALKSRLTISKDTSSSQVFLKIASMDTADTATYYCTRIYYYGPYFDVWGAGTTVTVSLAKTSRPSGGGGSGGGGSGGAGSGGGGSIEGRDIQLTQPPSFFSASLGDRASLTRRVSQDIGSSLNWLQQDPDGTIKRLIYAISSIDSGVPKRFSGNRSESDYSLTISSLESEDFVDYYCLQYASTPSTFGGGTKLEIKRDYKDDDDKRTSRVRLHHHHHHHKK
recordedEndpoint: binding result
result: binds
